Values were extracted from PubChem BioAssay AID196.

# Test system: BDF1 mice, intracerebral B16 melanoma, median survival T/C
# PROTOCOL DETAILS: NCI In Vivo Anticancer Drug Screen. Data for tumor model B16 Melanoma (intracerebral) in B6D2F1 (BDF1) mice
# ASSAY CONTEXT: endpoint: median survival time; dose: 256.0 mg/kg/injection; schedule: Q01DX009 (ip); vehicle: Klucel (hydroxypropylcellulose) (HPC); higher = longer survival
Inconclusive results and toxic doses are left out.
MEASUREMENT KIND: T/C

[Q] Please give the measured T/C for this molecule: `CCC(=O)O[C@H]1CC[C@H]2[C@@H]3CCC4=CC(=O)CC[C@]4(C)[C@H]3CC[C@]12C`
[A] 97 % of control

[Q] Quick one: T/C of `CCCCCC(=O)O[C@]1(C(C)=O)CC[C@H]2[C@@H]3CCC4=CC(=O)CC[C@]4(C)[C@H]3CC[C@@]21C` ?
[A] 94 % of control

[Q] Reported T/C, molecule `C[C@]1(O)CC[C@H]2[C@@H]3CCC4=CC(=O)CC[C@]4(C)[C@@]3(F)[C@@H](O)C[C@@]21C` : ____
[A] 95 % of control

[Q] Returns the measured T/C for the input molecule. Input: `CC/C(=C(/CC)c1ccc(O)cc1)c1ccc(O)cc1`
[A] 111 % of control

[Q] Which value of T/C has been reported for `CCC(=O)O[C@H]1CC[C@H]2[C@@H]3CC[C@H]4CC(=O)[C@H](C)C[C@]4(C)[C@H]3CC[C@]12C` in the records?
[A] 103 % of control

[Q] Could you share which T/C value was measured for COCC(O)Cn1ccnc1[N+](=O)[O-] (stereo unspecified) ?
[A] 86 % of control

====

# System: BDF1 mice, intracerebral B16 melanoma, median survival T/C
# PROTOCOL DETAILS: NCI In Vivo Anticancer Drug Screen. Data for tumor model B16 Melanoma (intracerebral) in B6D2F1 (BDF1) mice
# ASSAY CONTEXT: endpoint: median survival time; dose: 17.8 mg/kg/injection; schedule: Q01DX001 (ip); vehicle: Klucel (hydroxypropylcellulose) (HPC)
# Protocol: The antitumor activity of compounds was measured in mice bearing transplantable tumors. Survival or tumor size were measured and the results are expressed as the measurement made in the treated group (T) divided by the measurement made in the vehicle treated control group (C). The tumor model used in this assay is B16 Melanoma (intracerebral) in B6D2F1 (BDF1) mice
Inconclusive results and toxic doses are left out. The calls were made as follows: active = survival T/C of 150% or more; inactive = T/C below 125% in these data.
Output constraint: value belongs to Y = active, N = inactive

[Q] State the result this test recorded for O=CC(NC(=O)N(CCCl)N=O)C(O)C(O)C(O)CO (stereo not given) .
[A] N

[Q] Please let me know the test result on file for O=NN(CCF)C(=O)NC1C(O)CCCC1O (stereo not given) .
[A] N

[Q] Assay result, entry O=NN(CCCl)C(=O)NC1CCC(=O)NC1=O (stereo not given) — outcome?
[A] Y

[Q] So what was the verdict on `O=NN(CCF)C(=O)NC1CCCCC1` in this test?
[A] N

[Q] Hi, do you know how `O=NN(CCCl)C(=O)NC1CCCCC1` came out in this test?
[A] N

====

Hi there, I'd appreciate the recorded T/C for every entry that follows.
# Tested on: BDF1 mice, intracerebral B16 melanoma, median survival T/C
# PROTOCOL DETAILS: NCI In Vivo Anticancer Drug Screen. Data for tumor model B16 Melanoma (intracerebral) in B6D2F1 (BDF1) mice
# ASSAY CONTEXT: endpoint: median survival time; dose: 1.0 mg/kg/injection; schedule: Q01DX009 (ip); vehicle: saline; higher = longer survival
Inconclusive results and toxic doses are left out.

[Q] Item under review: O=CC(NC(=O)N(CCCl)N=O)C(O)C(O)C(O)CO (stereo not drawn) . Reported T/C?
[A] 97 % of control

[Q] Param item = COc1cccc2c1C(=O)c1c(O)c3c(c(O)c1C2=O)C[C@@](O)(C(=O)CO)C[C@@H]3OC1CC(N)C(O)C(C)O1 (stereo partly drawn) ; retrieve measured T/C.
[A] 104 % of control

[Q] Consider the compound shown here: COc1ccc(CC2C(=O)NC(C)C(=O)N(C)C3C(=O)N(C)C(Cc4ccc(O)c(c4)Oc4ccc(cc4)C3O)C(=O)NC(C)C(=O)NC(C)C(=O)N2C)cc1 (stereo not drawn) What is its recorded T/C?
[A] 98 % of control

[Q] Dear colleague, I am looking for the recorded T/C of the following compound: COc1cccc2c1C(=O)c1c(O)c3c(c(O)c1C2=O)C[C@@](O)(/C(C)=N/NC(=O)c1ccccc1)C[C@@H]3OC1CC(N)C(O)C(C)O1 (stereo partly drawn)
[A] 89 % of control

[Q] Entry under review: `COC1=C(N2CC2)C(=O)C(OC)=C(N2CC2)C1=O` . Reported T/C?
[A] 107 % of control

[Q] Quick check: T/C of `O=C1c2c(O)ccc(O)c2C(=O)c2c(NCCNCCO)ccc(NCCNCCO)c21` ?
[A] 96 % of control

[Q] Returns the measured T/C for the input compound. Input: `N[C@@H](Cc1ccc(N(CCCl)CCCl)cc1)C(=O)O`
[A] 100 % of control

[Q] Request the reported T/C associated with COc1cccc2c1C(=O)c1c(O)c3c(c(O)c1C2=O)C[C@@](O)(C(C)=O)C[C@@H]3OC1CC(N)C(O)C(C)O1 (stereo partly drawn)
[A] 100 % of control

====

# Tested on: BDF1 mice, intracerebral B16 melanoma, median survival T/C
# PROTOCOL DETAILS: NCI In Vivo Anticancer Drug Screen. Data for tumor model B16 Melanoma (intracerebral) in B6D2F1 (BDF1) mice
# ASSAY CONTEXT: endpoint: median survival time; dose: 0.5 mg/kg/injection; schedule: Q01DX009 (ip); vehicle: saline; higher = longer survival
Toxic doses and inconclusive results are not listed.
MEASUREMENT KIND: T/C

[Q] # lookup: T/C of `O=C1c2c(O)ccc(O)c2C(=O)c2c(NCCNCCO)ccc(NCCNCCO)c21`
[A] 90 % of control

[Q] I am curious: what T/C value has been reported for `COC1=C(N2CC2)C(=O)C(OC)=C(N2CC2)C1=O` ?
[A] 115 % of control

[Q] // lookup T/C for COc1ccc(CC2C(=O)NC(C)C(=O)N(C)C3C(=O)N(C)C(Cc4ccc(O)c(c4)Oc4ccc(cc4)C3O)C(=O)NC(C)C(=O)NC(C)C(=O)N2C)cc1 (stereo unspecified)
[A] 102 % of control

[Q] Fill in the blank: the reported T/C of COc1cccc2c1C(=O)c1c(O)c3c(c(O)c1C2=O)C[C@@](O)(C(=O)CO)C[C@@H]3OC1CC(N)C(O)C(C)O1 (stereo partly specified) is ____.
[A] 112 % of control

[Q] Name the recorded T/C for `N[C@@H](Cc1ccc(N(CCCl)CCCl)cc1)C(=O)O` .
[A] 95 % of control

[Q] Given COc1cc([C@@H]2c3cc4c(cc3[C@@H](OC3OC5CO[C@@H](c6cccs6)OC5C(O)C3O)[C@H]3COC(=O)[C@H]23)OCO4)cc(OC)c1O (stereo partly specified) , state its recorded T/C.
[A] 107 % of control

====

# Tested on: BDF1 mice, intracerebral B16 melanoma, median survival T/C
# PROTOCOL DETAILS: NCI In Vivo Anticancer Drug Screen. Data for tumor model B16 Melanoma (intracerebral) in B6D2F1 (BDF1) mice
# ASSAY CONTEXT: endpoint: median survival time; dose: 128.0 mg/kg/injection; schedule: Q01DX005 (ip); vehicle: saline with Tween-80; higher = longer survival
Toxic doses and inconclusive results are not listed.
MEASUREMENT KIND: T/C

[Q] Recorded T/C for CCC(C)N(C)/N=N/c1nc[nH]c1C(N)=O (centres undefined) , please?
[A] 107 % of control

[Q] // query T/C value for entry `CN(C)N=Nc1ccc([N+](=O)[O-])cc1C(N)=O`
[A] 107 % of control

[Q] Entry `CN(C)/N=N/c1[nH]ncc1C(N)=O` has what T/C?
[A] 121 % of control

[Q] Endpoint output: T/C of `C#CCN(C)/N=N/c1nc[nH]c1C(N)=O` . Value?
[A] 109 % of control

====

# Test system: BDF1 mice, intracerebral B16 melanoma, median survival T/C
# PROTOCOL DETAILS: NCI In Vivo Anticancer Drug Screen. Data for tumor model B16 Melanoma (intracerebral) in B6D2F1 (BDF1) mice
# ASSAY CONTEXT: endpoint: median survival time; dose: 64.0 mg/kg/injection; schedule: Q01DX009 (ip); vehicle: Klucel (hydroxypropylcellulose) (HPC); higher = longer survival
Inconclusive results and toxic doses are left out.
MEASUREMENT KIND: T/C

[Q] # get_value(readout= T/C, system= BDF1 mice, intracerebral B16 melanoma, median survival T/C) for `CC/C(=C(/CC)c1ccc(O)cc1)c1ccc(O)cc1`
[A] 106 % of control

[Q] Missing value: T/C, BDF1 mice, intracerebral B16 melanoma, median survival T/C, entry `CCC(=O)O[C@H]1CC[C@H]2[C@@H]3CC[C@H]4CC(=O)[C@H](C)C[C@]4(C)[C@H]3CC[C@]12C` . Fill in?
[A] 100 % of control

[Q] Request: T/C, test system BDF1 mice, intracerebral B16 melanoma, median survival T/C, entry CN(Cc1cnc2nc(N)nc(N)c2n1)c1c(Cl)cc(C(=O)NC(CCC(=O)O)C(=O)O)cc1Cl (configuration not stated)
[A] 96 % of control

[Q] Checklist item: T/C tested on BDF1 mice, intracerebral B16 melanoma, median survival T/C, entry `CCC(=O)O[C@H]1CC[C@H]2[C@@H]3CCC4=CC(=O)CC[C@]4(C)[C@H]3CC[C@]12C` , value?
[A] 99 % of control

[Q] For the record `C[C@]1(O)CC[C@H]2[C@@H]3CCC4=CC(=O)CC[C@]4(C)[C@@]3(F)[C@@H](O)C[C@@]21C` , what value of T/C is listed for BDF1 mice, intracerebral B16 melanoma, median survival T/C?
[A] 111 % of control

[Q] What reported T/C corresponds to `CCCCCCC(=O)O[C@H]1CC[C@H]2[C@@H]3CCC4=CC(=O)CC[C@]4(C)[C@H]3CC[C@]12C` on BDF1 mice, intracerebral B16 melanoma, median survival T/C?
[A] 96 % of control

[Q] For the record `CCCCCC(=O)O[C@]1(C(C)=O)CC[C@H]2[C@@H]3CCC4=CC(=O)CC[C@]4(C)[C@H]3CC[C@@]21C` , what value of T/C is listed for BDF1 mice, intracerebral B16 melanoma, median survival T/C?
[A] 100 % of control
